ASSAYED_SYSTEM: T1, P-cadherin-ECD1-3-Fc protein (human P-cadherin-Fc) (human, UniProt P22223 108-440)
T1 construct: Construct was expressed with signal peptide and pro-peptide (PACE co-transfected to process the propeptide); not shown: hinge and CH2 and CH3 domains of human IgG1
T1 sequence (P22223 108-440): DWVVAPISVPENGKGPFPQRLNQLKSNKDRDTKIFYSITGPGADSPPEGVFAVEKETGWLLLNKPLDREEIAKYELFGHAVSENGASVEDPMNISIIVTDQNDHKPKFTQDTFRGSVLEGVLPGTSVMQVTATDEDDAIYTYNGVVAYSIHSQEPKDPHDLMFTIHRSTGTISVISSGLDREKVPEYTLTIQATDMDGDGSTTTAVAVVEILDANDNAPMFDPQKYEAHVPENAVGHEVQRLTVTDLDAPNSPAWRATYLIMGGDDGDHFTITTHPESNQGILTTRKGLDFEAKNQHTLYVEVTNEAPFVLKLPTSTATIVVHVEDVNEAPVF
PROTOCOL_DESCRIPTION: phage scFv ELISA, coated P-cadherin-ECD1-3-Fc
OBSERVATION_TYPE: Z Score
// keep it numeric: no unit symbol after the value

Example results:
INSERT INTO measurements (binder, observation_type, numeric_result) VALUES
  ('anti-P-cadherin scFv 153 alanine-mutant H2.10-Ala (scFv, V domains shown, scFv on phage) VH: EVQLVQSGAEVKKPGASVKVSCKASGYTFTSYGISWVRQAPGQGLEWMGWISAYNGNTAYAQKLQGRVTMTTDTSTSTAYMELRSLRSDDTAVYYCATIDTANAFGIWGQGTMVTVSS VL: QSVLTQPPSVSAAPGQKVTISCSGSSSNIGNNYVSWYQQLPGTAPKLLIYDNNKRPSGIPDRFSGSKSGTSATLGITGLQTGDEADYYCGTWDSSLSGVVFGGGTKLTVL', 'Z Score', 1.5),
  ('anti-P-cadherin scFv 153 alanine-mutant H1.5-Ala (scFv, V domains shown, scFv on phage) VH: EVQLVQSGAEVKKPGASVKVSCKASGYTFASYGISWVRQAPGQGLEWMGWISAYNGNTNYAQKLQGRVTMTTDTSTSTAYMELRSLRSDDTAVYYCATIDTANAFGIWGQGTMVTVSS VL: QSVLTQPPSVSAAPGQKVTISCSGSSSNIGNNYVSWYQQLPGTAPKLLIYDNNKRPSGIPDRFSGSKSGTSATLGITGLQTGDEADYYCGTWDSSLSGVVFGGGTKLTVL', 'Z Score', 1.2);

Now look at this one.
Q: Can you look up the measured Z Score of anti-P-cadherin scFv 153 alanine-mutant H1.3-Ala (scFv, V domains shown, scFv on phage) VH: EVQLVQSGAEVKKPGASVKVSCKASGYAFTSYGISWVRQAPGQGLEWMGWISAYNGNTNYAQKLQGRVTMTTDTSTSTAYMELRSLRSDDTAVYYCATIDTANAFGIWGQGTMVTVSS VL: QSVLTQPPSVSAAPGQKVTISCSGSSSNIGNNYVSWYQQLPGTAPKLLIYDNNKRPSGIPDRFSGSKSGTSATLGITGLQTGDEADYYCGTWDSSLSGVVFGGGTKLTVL for me?
Result: 1.6
